Numbers sourced from patent US8153631B2.

# study-target: human HSD1 (recombinant HSD1) (Homo sapiens)
# method: In vitro HSD1 activity inhibitory action, SPA of cortisone to cortisol conversion
# study-conditions: recombinant human HSD1 0.1 μg/ml, 500 μM NADPH, 16 nM 3H cortisone, room temperature 90 min, read-out: hHSD1 IC50
pIC50: −log10 of the molar value.
pIC50 by entry:

// below: answered compounds
Cn1c(-c2ccc(C(=O)NCCO)cc2Cl)nnc1C1(c2ccccc2)CC1 [Ex. 1-78]	6.00 to 8.00
Cn1c(-c2ccc(NC(N)=O)cc2Cl)nnc1C1(c2ccccc2)CC1 [Ex. 1-35]	> 8.00
CC(C)C1CCN(c2nnc(C3(c4ccccc4)CC3)n2C)CC1 [Ex. 2-65]	> 8.00
Cn1c(N2CCC(Oc3cccc(C(N)=O)c3)CC2)nnc1C1(c2ccccc2)CC1 [Ex. 2-55]	6.00 to 8.00
COc1ccc(COc2ccc(-c3nnc(C4(c5ccccc5)CC4)n3C)c(Cl)c2)cc1 [Ex. 1-67]	> 8.00

Give pIC50 for Cn1c(-c2ccc(C(=O)NCCN3CCOCC3)cc2Cl)nnc1C1(c2ccccc2)CC1 [Ex. 1-88] tested on human HSD1 (recombinant HSD1) (Homo sapiens).
6.00 to 8.00

Report pIC50 on human HSD1 (recombinant HSD1) (Homo sapiens) for this entry: CC(C)NC(=O)c1ccc(-c2nnc(C3(c4ccccc4)CC3)n2C)c(Cl)c1 [Ex. 1-79]
6.00 to 8.00

GET pIC50 where system = human HSD1 (recombinant HSD1) (Homo sapiens) and item = Cn1c(N2CCN(c3ccc(F)cc3)CC2)nnc1C1(c2ccccc2)CC1 [Ex. 2-89]
6.00 to 8.00

Report pIC50 under test system human HSD1 (recombinant HSD1) (Homo sapiens) for CNC(=O)C1CCN(c2nnc(C3(c4ccccc4)CC3)n2C)CC1 [Ex. 2-18] .
6.00 to 8.00

###

# study-target: human HSD1 (recombinant HSD1) (Homo sapiens)
# method: In vitro HSD1 activity inhibitory action, SPA of cortisone to cortisol conversion
# study-conditions: recombinant human HSD1 0.1 μg/ml, 500 μM NADPH, 16 nM 3H cortisone, room temperature 90 min, read-out: hHSD1 IC50
The reader will find reported IC50 values listed item by item below.

Study these solved cases before continuing.
CC(=O)N1CCN(c2nnc(C3(c4ccccc4)CC3)n2C)CC1	10 to 1000 nM
Cn1c(N2CCN(Cc3ccc(Cl)cc3Cl)CC2)nnc1C1(c2ccccc2)CC1	10 to 1000 nM
CCOC(=O)Nc1ccc(-c2nnc(C3(c4ccccc4)CC3)n2C)c(Cl)c1	< 10 nM
CN(c1ncc(Cl)cc1Cl)C1CCN(c2nnc(C3(c4ccccc4)CC3)n2C)CC1	10 to 1000 nM
CN(C)c1ccc(-c2nnc(C3(c4ccccc4)CC3)n2C)c(Cl)c1	< 10 nM
Cn1c(-c2ccc(NC3CCN(C(=O)OC(C)(C)C)CC3)cc2Cl)nnc1C1(c2ccccc2)CC1	< 10 nM
Cn1c(N2CCC(Oc3c(Cl)cncc3Cl)CC2)nnc1C1(c2ccccc2)CC1	10 to 1000 nM
Cn1c(N2CCC(CCO)CC2)nnc1C1(c2ccccc2)CC1	< 10 nM

For the compound NCCn1c(C2CCN(c3c(Cl)cncc3Cl)CC2)nnc1C1(c2ccccc2)CC1 , give its measured IC50 value.
10 to 1000 nM

Supply IC50 value. Item: COCCNC(=O)C1CCN(c2ccc(-c3nnc(C4(c5ccccc5)CC4)n3C)c(Cl)c2)CC1
< 10 nM

Read the entry Cn1c(N2CCC(C)(C)CC2)nnc1C1(c2ccc(F)cc2)CC1 and write its reported IC50.
< 10 nM

###

# study-target: human HSD1 (recombinant HSD1) (Homo sapiens)
# method: In vitro HSD1 activity inhibitory action, SPA of cortisone to cortisol conversion
# study-conditions: recombinant human HSD1 0.1 μg/ml, 500 μM NADPH, 16 nM 3H cortisone, room temperature 90 min, read-out: hHSD1 IC50
Known IC50 of a selection of compounds

Cn1c(-c2ccc(NC(=O)CO)cc2Cl)nnc1C1(c2ccccc2)CC1	< 10 nM
OCCn1c(C2CCN(c3c(Cl)cncc3Cl)CC2)nnc1C1(c2ccccc2)CC1	< 10 nM
Cn1c(N2CCCc3ccccc32)nnc1C1(c2ccccc2)CC1	< 10 nM
CN(c1ccccc1)c1nnc(C2(c3ccccc3)CC2)n1C	< 10 nM
Cn1c(N2CCC(C)(O)CC2)nnc1C1(c2ccccc2)CC1	< 10 nM

Determine its reported IC50: CC(=O)NCCNC(=O)c1ccc(-c2nnc(C3(c4ccccc4)CC3)n2C)c(Cl)c1
10 to 1000 nM

Provide measured IC50 value, entry: Cn1c(N2CCC(Oc3ccccc3C(=O)O)CC2)nnc1C1(c2ccccc2)CC1
10 to 1000 nM

Give IC50 for CC(=O)N1CCC(c2nnc(C3(c4ccccc4)CC3)n2C)CC1
10 to 1000 nM

Recall and state the measured IC50 for Cn1c(-c2ccc(N3CCC(CO)CC3)cc2Cl)nnc1C1(c2ccccc2)CC1 .
< 10 nM

Give IC50 for Cn1c(N2CCC(C(N)=O)CC2)nnc1C1(c2ccccc2)CC1
< 10 nM

Supply IC50 value. Item: CC1CCN(c2nnc(C3(c4ccccc4)CC3)n2C)CC1
< 10 nM

Please list IC50 recorded for the compound Cn1c(-c2ccc(N3CCOCC3)cc2Cl)nnc1C1(c2ccc(F)cc2)CC1
< 10 nM

###

# study-target: human HSD1 (recombinant HSD1) (Homo sapiens, UniProt P28845)
# Sequence (P28845 whole entry): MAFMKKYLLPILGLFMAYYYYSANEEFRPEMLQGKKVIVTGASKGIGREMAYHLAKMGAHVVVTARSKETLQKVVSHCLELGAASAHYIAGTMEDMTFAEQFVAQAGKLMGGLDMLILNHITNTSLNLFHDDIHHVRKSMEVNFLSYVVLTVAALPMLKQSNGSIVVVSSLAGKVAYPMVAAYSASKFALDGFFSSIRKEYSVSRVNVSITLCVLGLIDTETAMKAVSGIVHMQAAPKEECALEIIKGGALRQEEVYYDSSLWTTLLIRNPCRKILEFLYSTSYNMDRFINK
# method: In vitro HSD1 activity inhibitory action, SPA of cortisone to cortisol conversion
# study-conditions: recombinant human HSD1 0.1 μg/ml, 500 μM NADPH, 16 nM 3H cortisone, room temperature 90 min, read-out: hHSD1 IC50
Each entry below carries its reported IC50.

Cn1c(-c2cc(Cl)ccc2Cl)nnc1C1(c2ccc(F)cc2)CC1 [Ex. 1-122]	< 10 nM
Cn1c(N2CCC(N)CC2)nnc1C1(c2ccccc2)CC1 [Ex. 2-8]	10 to 1000 nM
CCn1c(-c2ccc(C(N)=O)cc2Cl)nnc1C1(c2ccccc2)CC1 [Ex. 1-158]	< 10 nM

Supply reported IC50 belonging to this molecule: CC1CCN(c2ccc(-c3nnc(C4(c5ccccc5)CC4)n3C)c(Cl)c2)CC1 [Ex. 1-56]
< 10 nM

Quickly give me recorded IC50 for Cn1c(N2CCC(Nc3ncc(Cl)cc3Cl)CC2)nnc1C1(c2ccccc2)CC1 [Ex. 2-33]
10 to 1000 nM

Provide only the value of recorded IC50 for Cn1c(-c2ccc(NC(=O)CN3CCCC(O)C3)cc2Cl)nnc1C1(c2ccccc2)CC1 (stereo not drawn) [Ex. 1-44]
10 to 1000 nM

Look up IC50 of Clc1cnc(OC2CCN(c3nnc(C4(c5ccccc5)CC4)n3CC3CC3)CC2)c(Cl)c1 [Ex. 2-76] and report it.
< 10 nM

Fill in reported IC50 for this entry: Cn1c(-c2ccc(N3CCCCC3)cc2Cl)nnc1C1(c2ccccc2)CC1 [Ex. 1-53]
< 10 nM

Using the record for Cn1c(N2CCN(c3ccccc3Cl)CC2)nnc1C1(c2ccccc2)CC1 [Ex. 2-85] , state its measured IC50.
< 10 nM

###

# maps each entry to its IC50
# study-target: human HSD1 (recombinant HSD1) (Homo sapiens)
# method: In vitro HSD1 activity inhibitory action, SPA of cortisone to cortisol conversion
# study-conditions: recombinant human HSD1 0.1 μg/ml, 500 μM NADPH, 16 nM 3H cortisone, room temperature 90 min, read-out: hHSD1 IC50

Some solved cases for reference:
Cn1c(-c2ccc(N3CCOC3=O)cc2Cl)nnc1C1(c2ccc(F)cc2)CC1	< 0.01 µM
Cn1c(N2CCC(CO)(c3ccccc3)CC2)nnc1C1(c2ccccc2)CC1	0.01 to 1 µM
Cn1c(-c2ccc(O)cc2Cl)nnc1C1(c2ccccc2)CC1	< 0.01 µM
Cn1c(-c2ccc(OCC(F)(F)F)cc2Cl)nnc1C1(c2ccccc2)CC1	< 0.01 µM

Please find the next compound below.
Dear colleague, please send me the reported IC50 for CC(C)n1c(-c2ccc(C(N)=O)cc2)nnc1C1(c2ccc(F)cc2)CC1 when you can.
< 0.01 µM

###

# study-target: human HSD1 (recombinant HSD1) (Homo sapiens, UniProt P28845)
# method: In vitro HSD1 activity inhibitory action, SPA of cortisone to cortisol conversion
# study-conditions: recombinant human HSD1 0.1 μg/ml, 500 μM NADPH, 16 nM 3H cortisone, room temperature 90 min, read-out: hHSD1 IC50
Reported IC50 is given for each of the following compounds.

Worked cases, answers included:
Cn1c(-c2ccc(N3CCC(C(=O)O)CC3)cc2Cl)nnc1C1(c2ccccc2)CC1	10 to 1000 nM
CONC(=O)Nc1ccc(-c2nnc(C3(c4ccccc4)CC3)n2C)c(Cl)c1	< 10 nM

Report measured IC50; entry is Cn1c(N2CC[S+]([O-])CC2)nnc1C1(c2ccccc2)CC1
10 to 1000 nM

Return value of IC50 for input Cn1c(N2CCC(Cc3ccccc3)CC2)nnc1C1(c2ccccc2)CC1 , no commentary.
10 to 1000 nM

Look up and state reported IC50 for Cn1c(N2CCS(=O)(=O)CC2)nnc1C1(c2ccccc2)CC1
10 to 1000 nM

Return the recorded IC50 value; entry: Cn1c(-c2ccc(N3CCC4(CC3)OCCO4)cc2Cl)nnc1C1(c2ccccc2)CC1
10 to 1000 nM

Output IC50 of Cn1c(-c2ccc(Cl)cc2F)nnc1C1(c2ccccc2)CC1
< 10 nM
